# System: SF-539 CNS
# Test Method Notes: NCI tumour cell line growth inhibition, 48 h
Parameter Measured: TGI

Record excerpt, results attached:
1. COC(=O)/C(C#N)=C1\N=NNN1CCCN1CCOCC1 ... > 100 µM
2. N#Cc1c(=O)c2cccnc2n2c1[nH]c1ccccc12 ... > 100 µM
3. CC(C)OP(=O)(OC(C)C)C(N(C)C)P(=O)(OC(C)C)OC(C)C.[Cl][Sn]([Cl])([Cl])[c]1ccccc1 ... 15.1 µM
4. CC(CC(=O)O)(CC(=O)O)C(=O)O ... > 100 µM
5. COc1cc(C2C3=C(COC3=O)N(CCO)c3cc4c(cc32)CCC4)cc(OC)c1O (stereo unspecified) ... > 32.5 µM

Using the record for "O=C1CCC2(CCC(=O)NC2=O)C(=O)N1" , report its TGI. > 100 µM

----------
# System: HCC-2998 colon
# Test Method Notes: NCI tumour cell line growth inhibition, 48 h
Parameter Measured: GI50

Record excerpt, results attached:
1) Cc1ccc(C2=Nc3c(N)ncnc3NC(c3cccc(Nc4ccnc5cc(C(F)(F)F)ccc45)c3)C2)cc1 (stereo not drawn) ... 2590 nM
2) c1ccc2c(c1)nc(NCCN1CCNCC1)c1c3ccccc3[nH]c21 ... 425 nM
3) O=c1oc(-c2ccc(O)c(O)c2)cc2cc(O)cc(O)c12 ... 36600 nM

Provide GI50 values for the following items, in order.
1. C/C(=C(/c1ccc(O)cc1)c1ccc(OCCN2CCCC2)cc1)c1ccccc1
2. CCN(CC)CCC(=O)Nc1ccc(Cn2nnc3c2C(=O)c2nnn(Cc4ccc(NC(=O)CCN(CC)CC)cc4)c2C3=O)cc1
3. COc1cc2c3c(n(CCCNCCO)c(=O)c2cc1OC)-c1cc2c(cc1C3=O)OCO2
4. O=C1OC(c2ccc(O)cc2)(c2ccc(O)cc2)c2cccc3cccc1c23
5. CC(C)(C)n1cc(-c2ccnc(NCCNS(=O)(=O)c3ccc(Br)cc3)c2)c(-c2cccc(O)c2)n1
6. COC(=O)c1cc(Nc2ccc(O)c3c2C(=O)c2c([N+](=O)[O-])ccc(O)c2C3=O)cc(C(=O)OC)c1
7. COc1cccc(-c2nn(-c3ccccc3)cc2-c2ccnc(NCCNC(=O)Nc3ccc(Cl)c(Cl)c3)c2)c1

1. 2340 nM
2. 316 nM
3. 978 nM
4. 15800 nM
5. 1840 nM
6. 4390 nM
7. 1880 nM

----------
# System: HS 578T breast
# Test Method Notes: NCI tumour cell line growth inhibition, 48 h
Parameter Measured: GI50

Record excerpt, results attached:
1. COc1ccc(C2=CC(c3cc(OC)c(OC)c(OC)c3)n3ncnc3N2)cc1 (stereo not drawn) ... 0.0734 µM
2. COc1ccccc1Cn1cc2c(c1)-c1oncc1CC2 ... 0.384 µM

Provide GI50 values for the following items, in order.
1. CCN(CC)CCOc1ccc(/C=C2\C[C@H]3[C@@H]4CC=C5C[C@@H](OC(C)=O)CC[C@]5(C)[C@H]4CC[C@]3(C)[C@H]2OC(C)=O)cc1OC
2. O=c1oc(-c2ccc(O)c(O)c2)cc2cc(O)cc(O)c12
3. Cc1ccc(C2=Nc3c(N)ncnc3NC(c3cccc(Nc4ccnc5cc(C(F)(F)F)ccc45)c3)C2)cc1 (stereo not drawn)
4. O=C1OC(c2ccc(O)cc2)(c2ccc(O)cc2)c2cccc3cccc1c23
5. Cc1nn(-c2ccccc2)c2c1C1C(=C(c3ccc(Cl)cc3)N2)C(=O)Nc2ccccc21 (stereo not drawn)
6. COc1ccc2nc3ccc(OC)cc3c(SCCCN)c2c1

1: 10.6 µM; 2: 39.5 µM; 3: 4.01 µM; 4: 0.249 µM; 5: 8.59 µM; 6: 5.9 µM

----------
# Tested on: RPMI-8226 leukemia
# Test Method Notes: NCI tumour cell line growth inhibition, 48 h
Parameter Measured: TGI

Record excerpt, results attached:
1. COC(=O)C(C)N1C(=O)c2ccccc2I1OC(C)=O (centres undefined) ... 37.6 µM
2. N#Cc1c(N)c(-c2ccc(Cl)cc2)c(F)c2ccccc12 ... > 100 µM

Provide TGI values for the following items, in order.
1. O=C1c2cc(Cl)ccc2-n2c(noc2=O)C2CSCN12 (centres undefined)
2. CC1(C)N=C(N)N=C(N)N1c1ccc(OCC(=O)Nc2cccc(S(=O)(=O)F)c2)c(Cl)c1

> 100 µM
> 100 µM

----------
# Tested on: DLD-1 colon
# Test Method Notes: NCI tumour cell line growth inhibition, 48 h
Record form. Attribute: TGI. Fill in for each entry.

1. N#Cc1c2c(c(N=[N+]=[N-])n3c1nc1ccccc13)CCCC2 ... 2.94 µM
2. Cc1cc(N(CCC#N)S(=O)(=O)c2ccccc2)ccc1C=O ... > 100 µM
3. CC(C)(CN1CCCCC1)C(=O)CC(SCCS(=O)(=O)O)c1ccc(Br)cc1 (stereo unspecified) ... 5.73 µM
4. CCOC(=O)CCC1(C(=O)OC)CCCC1=O (stereo unspecified) ... > 100 µM
5. CC1=C(C#N)C(N)=C2C(C)=C(C#N)C(N)=C12 ... > 100 µM
6. CC(C)OP(=O)(OC(C)C)C(N(C)C)P(=O)(OC(C)C)OC(C)C.[Cl][Sn]([Cl])([Cl])[c]1ccccc1 ... > 100 µM
7. S=C(Nc1ccccc1)Nc1[nH]c(=S)sc1-c1nc2ccccc2[nH]1 ... > 100 µM
8. CC1=NN(C(=O)CC(=O)Nc2cccc(Cl)c2)C(=O)C1N=Nc1ccc(S(N)(=O)=O)cc1 (stereo unspecified) ... > 100 µM

Provide TGI values for the following items, in order.
1. O=C(CCCCCCCCC(=O)OCC1OC(n2cnc3c(=O)[nH]cnc32)C(O)C1O)OCC1OC(n2cnc3c(=O)[nH]cnc32)C(O)C1O (stereo unspecified)
2. CCOC(=O)C1C(c2cc(OC)c(O)c(OC)c2)c2cc3c(cc2OC1(C)O)OCO3 (stereo unspecified)
3. NC1=NS(=O)(=O)N=C(N)C1=Cc1ccc([N+](=O)[O-])o1
4. CCOC(=O)/C=C1\Nc2ccccc2C(c2ccccc2)=NC1OC(C)=O (stereo unspecified)
5. C=C1C(=O)O[C@H]2C1[C@H](OC(=O)/C(C)=C\COC(C)=O)C[C@]1(CO1)[C@@H]1[C@H](O)[C@H]3O[C@@]3(C)[C@@H]12 (stereo partly specified)

1. > 100 µM
2. > 100 µM
3. 33.7 µM
4. > 100 µM
5. 34.1 µM

----------
# Test system: UACC-62 melanoma
# Test Method Notes: NCI tumour cell line growth inhibition, 48 h; in the data active means GI50 below about 0.43 µM; inactive means the rest
Answer with one of the outcomes active, inactive

Study these solved cases before continuing.
1) COc1ccccc1Cn1cc2c(c1)-c1oncc1CC2 ... inactive
2) O=C1c2c(O)cccc2C(C(=O)CCCCC(=O)C2c3cccc(O)c3C(=O)c3c(O)cccc32)c2cccc(O)c21 ... inactive
3) COc1cc[nH]c1/C=C1\C(=O)Nc2ccc(F)c(C#CC3(O)CCOCC3)c21 ... active
4) CCN(CC)CCC(=O)Nc1ccc(Cn2nnc3c2C(=O)c2nnn(Cc4ccc(NC(=O)CCN(CC)CC)cc4)c2C3=O)cc1 ... inactive
5) COc1cc(C2C3=C(COC3=O)N(CCO)c3cc4c(cc32)CCC4)cc(OC)c1O (centres undefined) ... active

Consider the additional compound presented here.
Please let me know the test result on file for "COc1cccc(-c2nn(-c3ccccc3)cc2-c2ccnc(NCCNC(=O)Nc3ccc(Cl)c(Cl)c3)c2)c1" . inactive

----------
# Tested on: SK-OV-3 ovarian
# Test Method Notes: NCI tumour cell line growth inhibition, 48 h
Parameter Measured: TGI (µM)
Numbers only, in µM.

Record excerpt, results attached:
1. Cc1[nH]c(=O)nc(N/N=C/c2ccc(Cl)c(Cl)c2)c1C(=O)Nc1ccc(Cl)c(Cl)c1 ... 26.9
2. Cc1cc(CS(=O)(=O)/C=C/c2ccccc2[N+](=O)[O-])c(CS(=O)(=O)/C=C/c2ccccc2[N+](=O)[O-])cc1C ... 37.5
3. Cc1ccc([P+](Cc2ccc([N+](=O)[O-])cc2)(c2ccc(C)cc2)c2ccc(C)cc2)cc1 ... 25.2

Using the record for "CCOc1ccc(NC(=O)c2c(N/N=C/c3ccc(OC)cc3)nc(=O)[nH]c2C)cc1" , report its TGI. 83.1

----------
# Test system: SF-295 CNS
# Test Method Notes: NCI tumour cell line growth inhibition, 48 h
Parameter Measured: TGI

Record excerpt, results attached:
1) NC(Cc1nn[nH]n1)C(=O)O (stereo not given) ... > 100 µM
2) Cn1c(N)c(/C=N/NC(=O)CC#N)c(=O)n(C)c1=O ... > 100 µM
3) Cc1ccc(-c2cc(-c3ccc(Cl)cc3)nc(/N=C3\C(=O)N(CN4CCCCC4)c4ccc(Cl)cc43)n2)cc1 ... > 100 µM
4) CC(=O)N(C(C)=O)n1c(Cc2ccc(Cl)cc2)nn(C(C)=O)c1=O ... > 100 µM
5) O=C(c1ccccc1F)c1c(NCc2ccccc2)c(=O)c1=O ... > 100 µM

Provide TGI values for the following items, in order.
1. CC1=NN(c2ccc(C)cc2)C2(C1)SCC(=O)N2c1nc2ccccc2s1 (stereo not given)
2. OC(CC(c1ccccc1)c1ccc(Cl)cc1)c1ccc(Cl)cc1 (stereo not given)
3. O=C(N[C@@H]1CCCc2ccccc21)[C@H](CCC(=O)N1CCN(C2CCCCC2)CC1)N1C(=O)[C@@H](N2C(=O)OC[C@@H]2c2ccccc2)[C@H]1/C=C/c1ccccc1
4. CNc1ccc2nc(-c3ccc(OC(=O)N(C)C)cc3)cn2c1
5. CC(=O)[CH-]C(=O)c1ccccc1.CC(=O)[CH-]C(=O)c1ccccc1.[O]=[U+2]=[O]
6. CC1(CC(=O)O)OC2CCCCCC2O1 (stereo not given) (tested in a mixture with another compound)
7. COc1ccc2c(c1O)[C@@]13C=C(O)C(=O)C=C1[C@@H](C2)N(C)CC3

1: > 100 µM; 2: 92 µM; 3: 7.57 µM; 4: 31.5 µM; 5: > 100 µM; 6: > 100 µM; 7: > 100 µM
